assay details: NCI Yeast Anticancer Drug Screen. Data for the rad18 strain (AID 177)
condition label: S. cerevisiae rad18 mutant growth inhibition; at 33.0 µM; hits give high values
The panel holds about 79,000 compounds, 15% with a hit somewhere; the sample as a whole holds those more often.
Think of 80% as a floor: if growth inhibition stands on it or above, it is rule met; beneath it, rule not met.

INSERT INTO results (molecule, answer_label) VALUES
  ('O=C1c2cccc3cccc(c23)C(=O)N1CCNCCN1C(=O)c2cccc3cccc(c23)C1=O', 'rule not met'),
  ('CCCCN(CCCC)c1ccc(N=Nc2ccc(S(=O)(=O)O)cc2)cc1', 'rule met'),
  ('Cc1cc(OCc2nc(N)nc(N)c2-c2ccc(Cl)c(Cl)c2)ccc1[N+](=O)[O-]', 'rule not met'),
  ('CC1(C)CC(=O)C(C=NC(=S)C(N)=S)=C(O)C1', 'rule not met'),
  ('COc1cc(C(=O)C=O)cc(OC)c1OC', 'rule not met'),
  ('COC(=O)C1=C(C(=O)OC)CC(n2nnc(C(=O)OC)c2C(=O)OC)=CC1', 'rule not met'),
  ('CC(C)=CCc1c2c(c(O)c3c(=O)c(-c4ccc(O)c(O)c4)coc13)C=CC(C)(C)O2', 'rule met'),
  ('CCOc1ccc(N)c(S)c1', 'rule met'),
  ('O=C(/C(=C/c1ccc(O)cc1)c1ccccc1)c1ccccc1', 'rule met'),
  ('Fc1ccc(Nc2ccc3ccccc3c2)cc1', 'rule not met'),
  ('O=C(NCCCCN(CCCNC(=O)C(F)(F)F)Cc1ccccc1)C(F)(F)F', 'rule not met'),
  ('CC1(C)CC(=O)C(C(=O)Nc2cccs2)=C(O)C1', 'rule not met'),
  ('c1ccc2nc3c(nc2c1)sc1ccccc13', 'rule not met'),
  ('C=CC(C)(C)N1C(=O)C(C(C)=O)=C(O)C1Cc1c[nH]c2ccccc12 (stereo unspecified)', 'rule not met'),
  ('Nc1cc2c(cc1N)-c1ccccc1C2=O', 'rule not met'),
  ('COc1ccc(/C=C2\SC(=S)N(/C=C3\C(=O)N(c4ccccc4)N=C3C)C2=O)cc1OC', 'rule not met'),
  ('S=C1C(=Nc2ccccc2)N(c2ccccc2)/C(=N\c2ccccn2)N1c1ccccc1', 'rule met'),
  ('BrC1C2CCC3OC3C12 (stereo unspecified)', 'rule met'),
  ('COC(=O)C(Cl)(Cl)N=Nc1c(Cl)cc(Cl)c(C)c1Cl', 'rule met'),
  ('COc1ccc(C(C)c2cc3c(cc2OCC(C)=O)OCO3)cc1 (stereo unspecified)', 'rule not met'),
  ('CN(N=O)C(=O)Nc1ccc(C(=O)O)cc1', 'rule met'),
  ('COc1cc2c(cc1OC)[C@@H](Nc1ccc(C#N)cc1)C1COC(=O)[C@@H]1C2c1cc(OC)c(O)c(OC)c1 (stereo partly specified)', 'rule not met'),
  ('O=C1CCC(Cc2ccccc2)CN1 (stereo unspecified)', 'rule not met'),
  ('O=C1NC(c2cccc(OCc3ccccc3)c2)Nc2ccccc21 (stereo unspecified)', 'rule not met'),
  ('OC1(c2ccccc2)C2CC=CC2C1(c1ccccc1)c1ccccc1 (stereo unspecified)', 'rule not met'),
  ('Nc1ccc(S(=O)(=O)Nc2nc3c(c(=O)[nH]2)CCCC3)cc1', 'rule met'),
  ('O=C(O)c1c2ccc(Cl)cc2nc2[nH]c(=O)[nH]c(=O)c12', 'rule not met'),
  ('CN(C)CCNCCCNc1c2ccccc2nc2cccc([N+](=O)[O-])c12', 'rule met'),
  ('O=C1C=CC(=Nc2cccc3c2-c2ccccc2C3=O)O1', 'rule met'),
  ('Nc1ccc(/C=C/c2ccc3cccnc3c2)cc1', 'rule not met'),
  ('O=C1Nc2ccc(Br)cc2C1=Nc1ccc(Cl)cc1', 'rule not met'),
  ('NNc1ccccc1-c1nc2ccccc2[nH]1', 'rule not met'),
  ('CC1(C2CC2)C(C#N)(C#N)C1(C#N)C#N', 'rule not met'),
  ('O=C(Nc1cccs1)c1ccccc1', 'rule not met'),
  ('CC(=O)CCC1=C(C)C(=O)C(=O)C(C)=C1O', 'rule not met'),
  ('O=C(Cc1ccccc1)NNc1nc(NNC(=O)c2ccncc2)nc(Nc2ccc(Cl)cc2)n1', 'rule not met'),
  ('N#CCCC1C(C#N)C2(Cl)CC1(Cl)C(Cl)=C2Cl (stereo unspecified)', 'rule met'),
  ('C=CCNC1=C2C[C@@H](C)C[C@H](OC)[C@H](O)[C@@H](C)/C=C(\C)[C@H](OC(N)=O)[C@@H](OC)/C=C\C=C(/C)C(=O)NC(=CC1=O)C2=O', 'rule met'),
  ('ClCCCOc1c(Cl)cc(Cl)cc1Cl', 'rule not met'),
  ('O=[N+]([O-])/C=C/c1cc2ccc3ccccc3c2[nH]1', 'rule met'),
  ('O=C(C#Cc1ccccc1)Nc1ccccc1', 'rule not met'),
  ('O=C1C(CCSc2ccccc2)C(=O)N(c2ccccc2)C1c1ccccc1 (stereo unspecified)', 'rule met'),
  ('CC(=O)O/N=C1C=C/C(=C(/C#N)c2ccccc2)C=C/1C', 'rule met'),
  ('CC(=O)NC(c1nc2cc(C)c(C)cc2[nH]1)c1nc2cc(C)c(C)cc2[nH]1', 'rule not met'),
  ('CCCNCC(=O)O[C@]1(CC)C(=O)OCc2c1cc1n(c2=O)Cc2cc3ccccc3nc2-1', 'rule not met');

The values you see were collected from PubChem BioAssay (NCI).
